- target.desc: tyrosinase enzyme
- assay.summary: Tyrosinase inhibitory assay (L-DOPA substrate, BioVision kit)
- Type: biochemical
- condition.details: mean ± SEM, triplicate; listed as malic acid
experimental.readout: IC50

Look up IC50 with tyrosinase enzyme for this compound: O=C(O)CC(O)C(=O)O (stereo not shown)
> 50 µM

---

- target.desc: recombinant human COX-2 (Homo sapiens)
- Sequence (P35354 18-604): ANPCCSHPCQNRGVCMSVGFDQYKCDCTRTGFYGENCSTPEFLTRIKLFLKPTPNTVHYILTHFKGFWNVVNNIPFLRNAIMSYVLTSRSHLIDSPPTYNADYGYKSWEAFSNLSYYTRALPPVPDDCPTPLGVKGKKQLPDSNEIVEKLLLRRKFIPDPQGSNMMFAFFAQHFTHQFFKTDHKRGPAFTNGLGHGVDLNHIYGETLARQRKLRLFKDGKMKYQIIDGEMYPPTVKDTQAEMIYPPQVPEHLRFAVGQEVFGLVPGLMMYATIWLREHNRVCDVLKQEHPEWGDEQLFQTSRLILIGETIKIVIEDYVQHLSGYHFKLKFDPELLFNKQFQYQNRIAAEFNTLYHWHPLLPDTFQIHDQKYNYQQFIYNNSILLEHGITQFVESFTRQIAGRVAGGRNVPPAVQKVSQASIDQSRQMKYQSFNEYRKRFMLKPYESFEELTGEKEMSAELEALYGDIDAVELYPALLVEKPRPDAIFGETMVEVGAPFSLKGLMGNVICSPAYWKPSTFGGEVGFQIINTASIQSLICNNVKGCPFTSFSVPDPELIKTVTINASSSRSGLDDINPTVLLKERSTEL
- assay.summary: biochemical
experimental.readout: IC50 (µM)
Supply the numeric figure in µM, leaving out any unit text.

Reported IC50, compound OCCc1ccc(O)cc1 [Tyrosol (3), tyrosol] : ____
5.31

---

- target.desc: tyrosinase enzyme
- assay.summary: Tyrosinase inhibitory assay (L-DOPA substrate, BioVision kit)
- Format: biochemical
- condition.details: mean ± SEM, triplicate; listed as 4-hydroxybenzaldehyde
pIC50: −log10 of the molar value.
experimental.readout: pIC50

Checklist item: pIC50 tested on tyrosinase enzyme, entry O=Cc1ccc(O)cc1 [4-Hydroxybenzaldehyde (1), 4-hydroxybenzaldehyde] , value?
< 4.30
